B1: ANKRD40 (parent)
chain: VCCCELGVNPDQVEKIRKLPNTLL

# Variants of: B1
# test summary: protein stability index of a GFP-peptide fusion (GPS, HEK-293T) (PSI 1-6); higher = more stable;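 also: lentivirally expressed fusions sorted by FACS into six bins by GFP to DsRed ratio, PSI derived from sequencing read proportions per bin multiplied by bin number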
# conditions used: c terminus: a fixed tail appended
Measured protein stability index, listed per entry.
# answer = number (no unit)

Examples from the recorded data:
Qu. Looking for the measured protein stability index of V1M , can you help?
Ans. 2

Qu. What do we get for N9G ?
Ans. 1.96

Qu. Subsequent entry: I16H
Ans. 1.98

// next item, protein stability index requested
Qu. For the variant shown here, V1R , give the reported protein stability index.
Ans. 1.99
